biological target: IRAK4 (Homo sapiens (Human)); assay: Screening the compounds against IRAK4 with ATP (Caliper, FAM-labeled peptide); assay type: biochemical; conditions: read-out: IC50 (nM) (10 μM ATP); IRAK4 kinase, 10 μM ATP
Please provide measured IC50 for the entries that follow.
Entry rule: numbers only, all in nM.

Tell me reported IC50 for "COc1ncccc1NC(=O)c1cc2oc(N3CCOCC3)nc2nc1N1CCC(OC)CC1" , tested with IRAK4 (Homo sapiens (Human)).
98

Next: "CN1CC(Oc2nc3c(cc2C(=O)Nc2cccc(-c4cnn(C)c4)n2)CC(C)(C)O3)C1"
176

Follow-up entry: "Cn1cc(-c2cccc(NC(=O)c3cc4oc(N5CCOCC5)nc4nc3N3CC[C@H](O)C3)n2)cn1"
194

Record: "Cn1cc(-c2cccc(NC(=O)c3cc4c(nc3OC3CCOCC3)OC(C)(C)C4)n2)cn1"
11

Try the compound "Cn1cc(-c2cccc(NC(=O)c3cc4c(nc3OC3CNC3)OC(C)(C)C4)n2)cn1"
170

Proceed to "COc1nc2c(cc1C(=O)Nc1cccc(-c3cnn(C)c3)n1)CC(C)(C)O2"
50

Moving on to "Cn1cc(-c2cccc(NC(=O)c3cc4oc(N5CCOCC5)nc4nc3N3CC[C@@H](O)C3)n2)cn1"
405

Field entry: Cl.Cn1cc(-c2cccc(NC(=O)c3cc4oc(N5CCOCC5)nc4nc3N3CCN(C4CC4)CC3)n2)cn1 [Compound A35, Hydrochloride]
8.9

====

assay: Pharmacokinetics study in ICR mice; format: in vivo; conditions: mouse, plasma, oral; male ICR mice, p.o.: 10 mg/kg vs i.v.: 2 mg/kg
Consider the following compounds; for each one, report its bioavailability.
Please respond with the number in % and leave the unit unwritten.

Returns the measured bioavailability for the input compound. Input: "Cn1cc(-c2cccc(NC(=O)c3cc4c(nc3N3CCC(O)CC3)OC(C)(C)C4)n2)cn1"
91

# iterate: "Cn1cc(-c2cccc(NC(=O)c3cc4oc(N5CCOCC5)nc4nc3N3CCC(O)CC3)n2)cn1"
130

====

I'd be grateful if you could share measured IC50 for these entries.
biological target: IRAK4 (Homo sapiens (Human), UniProt Q9NWZ3); assay: Screening the compounds against IRAK4 with ATP (Caliper, FAM-labeled peptide); format: biochemical; conditions: read-out: IC50 (nM) (10 μM ATP); IRAK4 kinase, 10 μM ATP
Sequence (Q9NWZ3 whole entry): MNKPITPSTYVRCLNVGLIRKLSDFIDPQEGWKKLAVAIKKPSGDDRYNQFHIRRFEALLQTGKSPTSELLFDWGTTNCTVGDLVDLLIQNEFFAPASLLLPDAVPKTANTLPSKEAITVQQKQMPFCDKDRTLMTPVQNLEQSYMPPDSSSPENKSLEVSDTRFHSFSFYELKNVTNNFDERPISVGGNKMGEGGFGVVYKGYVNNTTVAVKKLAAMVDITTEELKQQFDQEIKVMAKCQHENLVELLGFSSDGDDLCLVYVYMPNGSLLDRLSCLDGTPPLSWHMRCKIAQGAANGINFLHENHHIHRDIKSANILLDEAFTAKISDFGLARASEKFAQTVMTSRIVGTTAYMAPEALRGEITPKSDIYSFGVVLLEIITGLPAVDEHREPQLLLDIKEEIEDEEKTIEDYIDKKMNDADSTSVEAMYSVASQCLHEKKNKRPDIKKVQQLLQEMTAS
Structures can show the parent of a compound that is named as a salt.
A number alone suffices; assume nM.

Query IC50 on IRAK4 (Homo sapiens (Human), UniProt Q9NWZ3) for "Cn1cc(-c2cccc(NC(=O)c3cc4oc(N5CCOCC5)nc4nc3N3CCN4CCC[C@H]4C3)n2)cn1"
81

How about "Cn1cc(-c2cccc(NC(=O)c3cc4c(nc3N3CCN(CCO)CC3)OC(C)(C)C4)n2)cn1" ?
31

What do you have for "CC(C)Oc1nc2c(cc1C(=O)Nc1cccc(-c3cnn(C)c3)n1)CC(C)(C)O2" ?
6.2

How about "Cn1cc(-c2cccc(NC(=O)c3cc4c(nc3N3CCNC5(CC5)C3)OC(C)(C)C4)n2)cn1" ?
224

Cool, now "CN1CCN(c2nc3nc(N4CCC5(CCO5)CC4)c(C(=O)Nc4cccc(-c5cnn(C)c5)n4)cc3o2)CC1"
4.9

Another compound to look at: "Cn1cc(-c2cccc(NC(=O)c3cc4oc(N5CCOCC5)nc4nc3N3CCC(O)CC3)n2)cn1"
11

Same question, Cn1cc(-c2cccc(NC(=O)c3cc4c(nc3OC3CCNC3)OC(C)(C)C4)n2)cn1 (stereo not drawn) this time
354

Quick one: "COc1cccc(NC(=O)c2cc3oc(N4CCOCC4)nc3nc2N2CCC(O)CC2)n1"
137

Now the compound "Cn1cc(-c2cccc(NC(=O)c3cc4oc(N5CCNCC5)nc4nc3N3CCC(C)(O)CC3)n2)cn1"
7.8

Next compound: "N#Cc1cccc(NC(=O)c2cc3oc(N4CCOCC4)nc3nc2N2CCC(O)CC2)n1"
87

Proceed to "COC1CCN(c2nc3nc(N4CCN(C)CC4)oc3cc2C(=O)Nc2cccc(-c3cnn(C)c3)n2)CC1"
5.1

What would you report for "Cn1cc(-c2cccc(NC(=O)c3cc4c(nc3O[C@H]3CCOC3)OC(C)(C)C4)n2)cn1" ?
6.5

Follow-up entry: CN1CCN(c2nc3nc(N4CCOCC4)oc3cc2C(=O)Nc2cccc(-c3cnn(C)c3)n2)CC1CO (stereo not drawn) [Compound A37, Hydrochloride]
462

And for Cl.Cn1cc(-c2cccc(NC(=O)c3cc4oc(N5CCOCC5)nc4nc3N3CCN(CCO)CC3)n2)cn1 [Compound A36, Hydrochloride] ?
17

Let us now turn to "Cn1cc(-c2cccc(NC(=O)c3cc4oc(N5CCOCC5)nc4nc3N3CCNCC3)n2)cn1"
304

Would you mind doing Cn1cc(-c2cccc(NC(=O)c3cc4c(nc3OC3CC(C)(O)C3)OC(C)(C)C4)n2)cn1 (stereo not drawn) as well?
6.8

And for "Cn1cc(-c2cccc(NC(=O)c3cc4c(nc3OC3CCCC3)OC(C)(C)C4)n2)cn1" ?
5.6

Now try "Cn1cc(-c2cccc(NC(=O)c3cc4oc(N5CCOCC5)nc4nc3N3CCC(F)(F)C3)n2)cn1" .
33

Do the same for "Cn1cc(-c2cccc(NC(=O)c3cc4c(nc3N3CCC5(CCO5)CC3)OC(C)(C)C4)n2)cn1" please
5.9

Try this compound too: "Cn1cc(-c2cccc(NC(=O)c3cc4oc(N5CCOCC5)nc4nc3N3CCC(C)(O)CC3)n2)cn1"
8.6

Thanks! And "CN1CCN(c2nc3c(cc2C(=O)Nc2cccc(-c4cnn(C)c4)n2)CC(C)(C)O3)CC1" ?
54

And what about the compound "COc1nc2nc(N3CCOCC3)oc2cc1C(=O)Nc1cccc(-c2cnn(C)c2)n1" ?
21

Item: "Cn1cc(-c2cccc(NC(=O)c3cc4oc(N5CCOCC5)nc4nc3N3CC4(CC(O)C4)C3)n2)cn1"
188

How about this compound: "COC1CCN(c2nc3c(cc2C(=O)Nc2cccc(-c4cnn(C)c4)n2)CC(C)(C)O3)CC1"
4.5

# iterate: "Cn1cc(-c2cccc(NC(=O)c3cc4c(nc3N3CCC(C)(O)CC3)OC(C)(C)C4)n2)cn1"
11

What do you have for "COc1ncccc1NC(=O)c1cc2oc(N3CCOCC3)nc2nc1N1CCC(O)CC1" ?
131

Same read-out for "Cn1cc(-c2cccc(NC(=O)c3cc4oc(N5CCOCC5)nc4nc3N3CC(C)(O)C3)n2)cn1" ?
164

Can you check "Cn1cc(-c2cccc(NC(=O)c3cc4c(nc3OC3COC3)OC(C)(C)C4)n2)cn1" next?
11

What do you get for "Cn1cc(-c2cccc(NC(=O)c3cc4oc(N5CCNCC5)nc4nc3N3CCC4(CCO4)CC3)n2)cn1" ?
5.9

Now this one: "Cn1cc(-c2cccc(NC(=O)c3cc4c(nc3O[C@@H]3CCOC3)OC(C)(C)C4)n2)cn1"
8.9
